Data credit: the Immune Epitope Database (IEDB)

biological target: HLA-A*11:01; experiment: IEDB peptide-MHC binding, purified MHC/competitive/fluorescence; bounds were set here for any values at or beyond the usual limits of such assays; details: source organism: Vaccinia virus Copenhagen
pIC50: −log10 of the molar value.
assay.endpoint: pIC50

record.sequence: VTLNASQYA
result.value: ≤ 3.64

----------
biological target: HLA-B*51:01; experiment: IEDB peptide-MHC binding, purified MHC/competitive/radioactivity; filed as Kd, often an IC50 or EC50 that approximates it; bounds were set here for any values at or beyond the usual limits of such assays; conditions: source organism: Mammarenavirus machupoense
pKd: −log10 of the molar value.

record.sequence: MPALTIACM
pKd: 5.43
